target: T1, human CD3ε/δ-Fc fusion protein (soluble recombinant CD3ε/δ complex) (human, UniProt P04234 22-105); test: SPR, CD3-Fc captured, Fab 100 nM
T1 construct: also called huCD3ε/δ; huCD3; not shown: hinge, CH2, CH3 of human IgG with tag
T1 sequence (chain, as listed by the source mutant, chain 1 of 2): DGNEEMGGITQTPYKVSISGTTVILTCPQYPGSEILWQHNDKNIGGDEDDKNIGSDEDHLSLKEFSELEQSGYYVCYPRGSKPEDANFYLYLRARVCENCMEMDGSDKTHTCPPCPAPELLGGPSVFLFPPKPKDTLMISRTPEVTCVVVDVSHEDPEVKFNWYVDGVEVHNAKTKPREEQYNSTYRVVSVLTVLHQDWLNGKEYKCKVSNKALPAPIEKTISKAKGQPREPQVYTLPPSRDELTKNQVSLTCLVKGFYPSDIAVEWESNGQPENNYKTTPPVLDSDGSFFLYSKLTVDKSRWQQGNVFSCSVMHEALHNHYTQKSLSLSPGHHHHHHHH
T1 sequence (P04234 22-105, stated change not applied, chain 2 of 2): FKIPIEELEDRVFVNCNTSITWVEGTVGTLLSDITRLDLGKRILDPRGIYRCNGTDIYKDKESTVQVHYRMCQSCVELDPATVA
test readout: RU of Fab binding at 100 nM (RU)
// note: answer is a bare numeric in RU

Worked cases, answers included:
{"columns": ["binder", "RU of Fab binding at 100 nM (RU)"],
 "data": [
  ["4E7-C9 Fab (Fab, V domains shown, also called BDX-4E7-C9) VH: EVQVVETGGSLVQPGKSLKLTCATSGFTFSNAWMHWVRQSPEKQLEWVAQIKDKSNNYATYYAESLKGRFTISRDDPKRSIYLQMNSLREEDTAIYYCRYVHYGIGYAMDAWGQGTSVTVSS VL: DVVMTQTPVSLSVSLGGQVSISCRSSQSLEHNNGNTYLSWYLQKPGQSPQPLIYKVSNRFSGISDRFSGSGSGTDFTLKISRVEPDDLGVYYCGQGTQYPFTFGPGTKLELKR", 8],
  ["10E6-G6 Fab (Fab, V domains shown) VH: EVQLVETGGGLVQSGKSLKLTCATSGFTVTNAWMHWVRQSPEKQLEWVAQIKAKSNNYETYYAESVKGRFTISRDDSKSSVYLQMNSLKEEDTAIYYCRGTQYGYNPFDYWGQGVMVTVSS VL: DVVMTQSPVSLSVSLGGQVSISCRSSQSLVHNNGYTYLSWYLQKPGQSPQVFIYKVSNRFSGISDRFSGSGSGTDFTLKISRIEPDDLGVYYCGQGTHYPFTFGSGTKLEIK", 11],
  ["20E5-F10 Fab (Fab, V domains shown, also called 20E5-F10-huFab) VH: EVQLVETGENLVQPGKSLRLTCATSGFSFSNAWMHWIRQSPEKQLEWVAQIKDKSNNYATYYAESVNGRFTISRDDSKSSIYLHMDNLKEEDSAIYYCRYVHYGVRFFYTMDVWGQGTSVTVSS VL: DVVMTQTPVSLSVSLGDQVSISCRPSQSLVHNNGNTYLSWYLQKPGQSPHPLIYKVSNRFSGISDRFSGSGSGTDFTLKISRVEPDDLGVYYCGQGTQYPFTFGSGTKLEIK", 11],
  ["11F9-F8 Fab (Fab, V domains shown, also called 11F9-F8-huFab) VH: EVQLVETGGTLVQPGKSLKLTCATSGFTFSNAWMHWVRQSPEKQLEWVAQIKAKSNNYATYYAESVKGRFTISRDDSKTSVYLQLNSLREEDTAIYYCRGTQYGYNPFDYWGQGVMVTVSS VL: DVVLTQTPVSLSVSLGGQVSISCRSSQSLVHNNGNTYLSWSLQKPGQSPQVLIYKVSNRFSGISNRFSGSGSGTDFTLKISRVEPDDLGVYYCGQGAHYPFTFGSGTKLEIK", 10],
  ["12G3-E8 Fab (Fab, V domains shown) VH: EVRVVETGGSLVQPGKSLKLTCATSGFTFSLAWMHWVRQSPEKKLEWVAQIKDKANNYATYYAESVKGRFTISRDDSKRSVYLQMNRLKEEDTAIYYCRGVYYGFSMTPFDYWGQGVMVTVSS VL: DVAMTQTPVSLSVSLGGQVSISCRSSQSLVHNNGNTYLSWYLQKPGQSPQVLIYKVSNRFSGISDRFSGSGSGADFTLKISRVEPDDLGVYYCGQGTQYPFTFGAGTKLELK", 10]
]}

Could you share which RU of Fab binding at 100 nM value was measured for 4B4-D7 Fab (Fab, V domains shown, also called BDW-4B4-D7) VH: EVQLVETGGRLVQPGRSLKLTCATSGFTFSNAWMHWVRQSPEKQLEWVAQIKARSNNYATYYAESVKGRFTISRDDSKSTIYLQMNSLKEEDTAIYYCRGTYYASKPFDYWGQGVMVTVSS VL: DVVMTQTPVSLSVSLGGQVSISCRSSQSLVHDNGNTYLSWSLQRPGQSPQVLIYKVSNRFSGTSDRFTGSGSGTDFTLKISRVEPDDLGVYYCGQGTQYPFTFGSGTKLEIKR ? 11

Fill blank: measured RU of Fab binding at 100 nM of the binder 20G6-F3 Fab (Fab, V domains shown, also called BDW-20G6-F3) VH: EVQLVETGGSLVQPGKSLKLTCATSGFTFTKAWMHWVRQSPEKQLEWVAQIKDKSNSYATYYAESVKGRFTISRDDSKSTIYLQMNSLKEEDTAIYYCRGVYYALSPFDYWGQGVMVTVSS VL: DVVMTQTPVSLSVSLGGQVSISCRSSQSLVHNNGNTYLSWYLQKPGQSPQSLIYKVSNRFSGFSDRFSGSGSGTDFTLKISRVDPDDLGVYYCGQGTQYPFTFGSGTKLEIKR is ____. 7
